# Measurement Target: NAD-dependent protein deacetylase sirtuin-1 (Homo sapiens)
# Sequence (Q96EB6 whole entry): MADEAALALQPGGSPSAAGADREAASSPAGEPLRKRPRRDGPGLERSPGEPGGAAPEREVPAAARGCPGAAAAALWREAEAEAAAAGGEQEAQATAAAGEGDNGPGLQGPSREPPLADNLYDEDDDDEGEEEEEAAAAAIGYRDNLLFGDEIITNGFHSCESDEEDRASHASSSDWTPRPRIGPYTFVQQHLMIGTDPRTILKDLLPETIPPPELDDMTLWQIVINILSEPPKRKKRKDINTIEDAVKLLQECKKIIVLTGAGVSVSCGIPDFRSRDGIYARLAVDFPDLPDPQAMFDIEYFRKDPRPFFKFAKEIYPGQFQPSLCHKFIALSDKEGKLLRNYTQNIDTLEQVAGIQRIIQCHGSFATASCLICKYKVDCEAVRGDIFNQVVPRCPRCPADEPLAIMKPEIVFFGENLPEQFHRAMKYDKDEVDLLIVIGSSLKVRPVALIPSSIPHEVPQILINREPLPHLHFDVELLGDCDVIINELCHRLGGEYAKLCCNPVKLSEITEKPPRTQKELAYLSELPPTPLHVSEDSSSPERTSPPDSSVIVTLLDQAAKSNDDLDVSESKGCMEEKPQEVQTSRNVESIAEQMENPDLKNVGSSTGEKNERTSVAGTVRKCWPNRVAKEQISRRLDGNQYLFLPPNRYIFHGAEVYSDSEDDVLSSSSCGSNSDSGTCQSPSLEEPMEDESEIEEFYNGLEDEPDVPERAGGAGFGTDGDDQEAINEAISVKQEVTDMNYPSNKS
# Experimental Protocol: Inhibition of human recombinant SIRT1 after 60 mins by fluorimetric analysis
Measurement Type: pIC50
Note on pIC50: it is the negative log10 of concentration, concentration in mol/L.

**Query** Item under review: `CC(=S)NCCCC[C@H](NC(=O)OCc1ccccc1)C(=O)Nc1ccccc1` . Reported pIC50?
**Result** 5.57

---

# Measurement Target: NAD-dependent protein deacetylase sirtuin-3, mitochondrial (Homo sapiens)
# Sequence (Q9NTG7 whole entry): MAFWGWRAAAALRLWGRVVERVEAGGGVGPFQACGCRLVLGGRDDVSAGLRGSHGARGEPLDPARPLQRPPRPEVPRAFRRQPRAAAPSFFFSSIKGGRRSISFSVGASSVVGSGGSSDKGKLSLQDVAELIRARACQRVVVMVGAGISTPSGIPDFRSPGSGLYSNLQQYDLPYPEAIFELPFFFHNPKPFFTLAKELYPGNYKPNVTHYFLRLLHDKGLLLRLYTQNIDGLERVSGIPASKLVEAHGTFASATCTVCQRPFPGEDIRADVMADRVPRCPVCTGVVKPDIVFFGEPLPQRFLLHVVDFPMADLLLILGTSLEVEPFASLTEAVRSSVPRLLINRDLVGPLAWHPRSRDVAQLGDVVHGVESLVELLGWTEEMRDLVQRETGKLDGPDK
# Experimental Protocol: Inhibition of human recombinant SIRT3 after 60 mins by fluorimetric analysis
Measurement Type: IC50

**Query** Item under review: `CC(=S)NCCCC[C@H](NC(=O)OCc1ccccc1)C(=O)Nc1ccccc1` . Reported IC50?
**Result** > 100 µM
